# target under test: human CRTH2 (Homo sapiens)
# assay overview: Calcium Flux Assay Using Fluorometric Imaging Plate Reader (FLIPR)
# Assay type: cell-based
# Parameters: expressed in transfected cells; host or cells: CHO-K1 previously transfected with G-alpha 16
# study conditions: CHO-K1 cells with G-alpha 16 and human CRTH2; unit inferred; read-out: IC50 value in FLIPR calcium flux assay (unit inferred)
readout: IC50

INSERT INTO measurements (compound, readout, result) VALUES
  ('O=C(O)COc1cccc2c1CCC[C@H]2NS(=O)(=O)c1cc(Cl)cc(Cl)c1 [Example 10-1]', 'IC50', '~3 µM');

###

# target under test: human CRTH2 (Homo sapiens)
# Sequence (Q9Y5Y4 1-395): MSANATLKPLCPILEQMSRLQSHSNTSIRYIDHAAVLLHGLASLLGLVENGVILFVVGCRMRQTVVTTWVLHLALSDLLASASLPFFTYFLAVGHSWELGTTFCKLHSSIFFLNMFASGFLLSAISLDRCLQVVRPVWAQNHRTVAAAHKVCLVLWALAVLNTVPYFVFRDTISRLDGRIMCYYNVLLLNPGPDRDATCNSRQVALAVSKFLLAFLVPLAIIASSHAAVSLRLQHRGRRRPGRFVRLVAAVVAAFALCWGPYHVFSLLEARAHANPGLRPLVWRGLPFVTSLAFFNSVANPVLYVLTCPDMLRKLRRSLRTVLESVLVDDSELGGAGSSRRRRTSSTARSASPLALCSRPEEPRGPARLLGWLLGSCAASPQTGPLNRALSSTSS
# assay overview: Calcium Flux Assay Using Fluorometric Imaging Plate Reader (FLIPR)
# Type: cell-based
# Set-up: expressed in transfected cells; host or cells: CHO-K1 previously transfected with G-alpha 16
# study conditions: CHO-K1 cells with G-alpha 16 and human CRTH2; inhibition of ligand (DK-PGD2) response; read-out: IC50 value in FLIPR calcium flux assay
pIC50: −log10 of the molar value.
Tag: true (1) if measured pIC50 is not below 6, false (0) if it is.

INSERT INTO results (smiles_notation, target_under_test, group) VALUES
  ('O=C(O)COc1cccc2c1CCC[C@H]2NS(=O)(=O)c1cc(F)cc(C(F)(F)F)c1', 'human CRTH2 (Homo sapiens)', 'true (1)'),
  ('O=C(O)COc1cccc2c1CCC[C@H]2NS(=O)(=O)c1cc(F)cc(F)c1', 'human CRTH2 (Homo sapiens)', 'true (1)'),
  ('CN([C@@H]1CCCc2c(OCC(=O)O)cccc21)S(=O)(=O)c1cc(F)cc(C(F)(F)F)c1', 'human CRTH2 (Homo sapiens)', 'false (0)'),
  ('CN([C@@H]1CCCc2c(OCC(=O)O)cccc21)S(=O)(=O)c1cc(OC2CCCC2)cc(C(F)(F)F)c1', 'human CRTH2 (Homo sapiens)', 'true (1)'),
  ('CCN(CC)c1cc(C(F)(F)F)cc(S(=O)(=O)N(C)[C@@H]2CCCc3c(OCC(=O)O)cccc32)c1', 'human CRTH2 (Homo sapiens)', 'false (0)');
